system: biotinyl-Met-oxazolone; assay: self-aminoacylation, catalytic enhancement (BMO) (fold over background); higher = more active; k-Seq, kA / k0A0; sequences stand for … in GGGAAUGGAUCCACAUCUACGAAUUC…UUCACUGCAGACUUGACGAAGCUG
This sample holds only a part of the variants without activity.
attribute_measured: self-aminoacylation
Give bare numbers.

* CUCCUUCAAACAAUCGCUCUG [Fam1A.1 aminoacylation ribozyme variant] | 0.531
* GUUACCCUGGUCAUCGAGUGC [Fam2.1 aminoacylation ribozyme variant] | 12.9
* AUUACCCUGGUCAACAAGUGA [Fam2.1 aminoacylation ribozyme variant] | 7.83
* CCACAUUUCCAGCAAUCGGUC [Fam1B.1 aminoacylation ribozyme variant] | 1.64
* AAGUACGCUAAUAGUCGCAAG [Fam3.1 aminoacylation ribozyme variant] | 1.59

Kindly give each listed record's self-aminoacylation.
1. CCACACUUCAAGGAAUCGGUG [Fam1B.1 aminoacylation ribozyme variant]
2. AUACACCUGGGUCAUCGGGUG [Fam2.2 aminoacylation ribozyme variant]
3. CCACACUUCAAGUACUCGGUC [Fam1B.1 aminoacylation ribozyme variant]

Output:
7.21
4.39
1.06
